Target: Monoamine transporters; serotonin & dopamine (Homo sapiens) (UniProt P31645+Q01959)
Sequence (P31645 whole entry, looked up): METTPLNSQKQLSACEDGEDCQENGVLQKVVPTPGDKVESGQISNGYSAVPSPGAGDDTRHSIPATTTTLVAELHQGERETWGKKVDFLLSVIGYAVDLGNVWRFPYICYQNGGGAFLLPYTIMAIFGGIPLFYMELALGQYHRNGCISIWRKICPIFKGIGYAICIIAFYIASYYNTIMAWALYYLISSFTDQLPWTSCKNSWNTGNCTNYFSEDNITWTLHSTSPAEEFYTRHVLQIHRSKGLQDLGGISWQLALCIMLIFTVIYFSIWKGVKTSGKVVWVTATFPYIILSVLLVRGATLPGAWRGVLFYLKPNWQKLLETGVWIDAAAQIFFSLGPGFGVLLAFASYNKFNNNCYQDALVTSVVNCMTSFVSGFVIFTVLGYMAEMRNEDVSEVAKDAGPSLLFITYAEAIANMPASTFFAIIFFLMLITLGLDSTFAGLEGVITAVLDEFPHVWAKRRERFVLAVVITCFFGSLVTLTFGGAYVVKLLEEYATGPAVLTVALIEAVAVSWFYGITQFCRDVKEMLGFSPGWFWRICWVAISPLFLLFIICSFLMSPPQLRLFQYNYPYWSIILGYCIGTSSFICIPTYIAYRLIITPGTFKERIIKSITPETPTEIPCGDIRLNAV
Sequence (Q01959 whole entry, looked up): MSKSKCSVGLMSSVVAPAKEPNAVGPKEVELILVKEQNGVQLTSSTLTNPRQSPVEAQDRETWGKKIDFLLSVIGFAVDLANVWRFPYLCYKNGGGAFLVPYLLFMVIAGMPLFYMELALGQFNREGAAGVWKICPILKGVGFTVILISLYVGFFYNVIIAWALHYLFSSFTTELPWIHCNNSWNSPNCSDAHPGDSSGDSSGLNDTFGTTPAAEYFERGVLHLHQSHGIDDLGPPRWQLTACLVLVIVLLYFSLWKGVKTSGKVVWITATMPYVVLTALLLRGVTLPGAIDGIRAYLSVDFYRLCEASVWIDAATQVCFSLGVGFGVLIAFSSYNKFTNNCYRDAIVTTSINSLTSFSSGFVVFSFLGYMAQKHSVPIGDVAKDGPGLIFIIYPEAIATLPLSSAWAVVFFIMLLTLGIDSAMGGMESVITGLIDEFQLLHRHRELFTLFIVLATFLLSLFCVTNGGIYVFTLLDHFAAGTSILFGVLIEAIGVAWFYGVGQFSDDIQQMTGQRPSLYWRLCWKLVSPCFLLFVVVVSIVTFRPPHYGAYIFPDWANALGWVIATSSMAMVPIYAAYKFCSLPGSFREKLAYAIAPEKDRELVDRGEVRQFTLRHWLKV
Assay: Ratio of 5-hydroxy tryptamine and dopamine transporter inhibition
Format: protein assay
Values of Ratio strictly less than 0.1 map to true (1), and values of at least 0.1 map to false (0).

                               smiles_entry  answer_label
0  Cc1ccc([C@H]2C[C@H]3CCC4C2[C@@](O)(c2ccc(Cl)cc2)CN43)cc1     false (0)
1  C=C1CN2C3CC[C@@H]2C[C@H](c2ccc(C)cc2)C13     false (0)
2  CCC[C@@]1(O)CN2C3CC[C@@H]2C[C@H](c2ccc(C)cc2)C31     false (0)
3  O=C1CN2C3CC[C@@H]2C[C@H](c2ccc(F)cc2)C13      true (1)
4   Cc1ccc([C@H]2C[C@H]3CCC4C2C(=O)CN43)cc1     false (0)
5  Cc1ccc([C@H]2C[C@H]3CCC4C2[C@](C)(O)CN43)cc1     false (0)

###

Target: Sodium-dependent dopamine transporter (Homo sapiens, UniProt Q01959)
Sequence (Q01959 whole entry): as the sequence (Q01959 whole entry, looked up) above
Test: Inhibition of [3H]dopamine uptake in HEK cells expressing human Dopamine transporter
ENDPOINT LABEL: IC50 (nM)

>>> print(df.to_string())
                                   compound                           target_of_assay  numeric_value
0   Cc1ccc([C@H]2C[C@H]3CCC4C2C(=O)CN43)cc1  Sodium-dependent dopamine transporter (Homo sapiens, UniProt Q01959)            538
1  CCCC1C2C3CCN2[C@H](C3)C[C@@H]1c1ccc(C)cc1 (some centres not stated)  Sodium-dependent dopamine transporter (Homo sapiens, UniProt Q01959)            570
2  Cc1ccc([C@H]2C[C@H]3CCC4C2[C@@](O)(c2ccc(Cl)cc2)CN43)cc1  Sodium-dependent dopamine transporter (Homo sapiens, UniProt Q01959)             44
3  CCC[C@@]1(O)CN2C3CC[C@@H]2C[C@H](c2ccc(C)cc2)C31  Sodium-dependent dopamine transporter (Homo sapiens, UniProt Q01959)            373
4  Cc1ccc([C@H]2C[C@H]3CCC4C2[C@](C)(O)CN43)cc1  Sodium-dependent dopamine transporter (Homo sapiens, UniProt Q01959)            390
5  C=C1CN2C3CC[C@@H]2C[C@H](c2ccc(C)cc2)C13  Sodium-dependent dopamine transporter (Homo sapiens, UniProt Q01959)             67
6  O=C1CN2C3CC[C@@H]2C[C@H](c2ccc(F)cc2)C13  Sodium-dependent dopamine transporter (Homo sapiens, UniProt Q01959)           3320

###

Target: UniProtKB P31645
Experiment: The compound was tested for inhibition of [3H]-5-hydroxy tryptamine uptake in HEK cells by expressing cDNA for human […]
Assay type: cell-based, HEK293
Here the recorded IC50 is given for each entry.
ENDPOINT LABEL: IC50 (nM)

In [3]: df
Out[3]:
                               smiles_entry   target_of_assay  endpoint_label  unit_tag  numeric_value
0  Cc1ccc([C@H]2C[C@H]3CCC4C2[C@](C)(O)CN43)cc1  UniProtKB P31645            IC50        nM            147
1  O=C1CN2C3CC[C@@H]2C[C@H](c2ccc(F)cc2)C13  UniProtKB P31645            IC50        nM            251
2  C=C1CN2C3CC[C@@H]2C[C@H](c2ccc(C)cc2)C13  UniProtKB P31645            IC50        nM             33
3  CCC[C@@]1(O)CN2C3CC[C@@H]2C[C@H](c2ccc(C)cc2)C31  UniProtKB P31645            IC50        nM             41
4  Cc1ccc([C@H]2C[C@H]3CCC4C2[C@@](O)(c2ccc(Cl)cc2)CN43)cc1  UniProtKB P31645            IC50        nM             13
5   Cc1ccc([C@H]2C[C@H]3CCC4C2C(=O)CN43)cc1  UniProtKB P31645            IC50        nM             68
6  Cc1ccc([C@H]2C[C@H]3CCC4C2[C@@](O)(c2ccccc2)CN43)cc1  UniProtKB P31645            IC50        nM            7.9
